Molecular target: Platelet-derived growth factor receptor (Homo sapiens, UniProt P09619+P16234)
Assay: Antitumor activity measured by the inhibition of platelet-derived growth factor receptor autophosphorylation in intact Swiss 3T3 cells
Format: cell-based
pIC50: −log10 of the molar value.
Quantity Name: pIC50

>>> test_value("O=C(c1cc2ccccc2[nH]1)c1cc2cc(OC(=O)c3ccco3)ccc2[nH]1")
6.22
>>> test_value("COCC(=O)Oc1ccc2[nH]c(C(=O)c3cc4ccccc4[nH]3)cc2c1")
6.70
>>> test_value("O=C(Oc1ccc2[nH]c(C(=O)c3cc4ccccc4[nH]3)cc2c1)c1ccccc1")
6.10

[a] CN(C)CC(=O)Oc1ccc2[nH]c(C(=O)c3cc4ccccc4[nH]3)cc2c1
[b] CN(C)CCOc1ccc2[nH]c(C(=O)c3cc4ccccc4[nH]3)cc2c1
**Query** Which one would you say has the larger pIC50 value: a , or b ? // caller expects the label of the chosen entry
**Result** a
(a: 7.00, b: 6.10)

[a] O=C(c1cc2ccccc2[nH]1)c1cc2cc(OC(=O)C3CCC3)ccc2[nH]1
[b] COc1ccc(C(=O)Oc2ccc3[nH]c(C(=O)c4cc5ccccc5[nH]4)cc3c2)cc1
[c] CCOc1ccc(C(=O)Oc2ccc3[nH]c(C(=O)c4cc5ccccc5[nH]4)cc3c2)cc1
**Query** Sort by pIC50, descending. // ordering of labels required in reply
**Result** c, b, a

###

Experiment: Inhibition of Protein kinase C isoforms epsilon and iota in vitro phosphorylation
pIC50: −log10 of the molar value.
Quantity Name: pIC50

>>> test_value("CC(=O)Oc1ccc2[nH]c(C(=O)c3cc4ccccc4[nH]3)cc2c1")
4.77
>>> test_value("CN(C)CC(=O)Oc1ccc2[nH]c(C(=O)c3cc4ccccc4[nH]3)cc2c1")
4.82
>>> test_value("COCC(=O)Oc1ccc2[nH]c(C(=O)c3cc4ccccc4[nH]3)cc2c1")
4.69

###

Target: Beta-adrenergic receptor kinase 1 (Homo sapiens)
Sequence (P25098 whole entry): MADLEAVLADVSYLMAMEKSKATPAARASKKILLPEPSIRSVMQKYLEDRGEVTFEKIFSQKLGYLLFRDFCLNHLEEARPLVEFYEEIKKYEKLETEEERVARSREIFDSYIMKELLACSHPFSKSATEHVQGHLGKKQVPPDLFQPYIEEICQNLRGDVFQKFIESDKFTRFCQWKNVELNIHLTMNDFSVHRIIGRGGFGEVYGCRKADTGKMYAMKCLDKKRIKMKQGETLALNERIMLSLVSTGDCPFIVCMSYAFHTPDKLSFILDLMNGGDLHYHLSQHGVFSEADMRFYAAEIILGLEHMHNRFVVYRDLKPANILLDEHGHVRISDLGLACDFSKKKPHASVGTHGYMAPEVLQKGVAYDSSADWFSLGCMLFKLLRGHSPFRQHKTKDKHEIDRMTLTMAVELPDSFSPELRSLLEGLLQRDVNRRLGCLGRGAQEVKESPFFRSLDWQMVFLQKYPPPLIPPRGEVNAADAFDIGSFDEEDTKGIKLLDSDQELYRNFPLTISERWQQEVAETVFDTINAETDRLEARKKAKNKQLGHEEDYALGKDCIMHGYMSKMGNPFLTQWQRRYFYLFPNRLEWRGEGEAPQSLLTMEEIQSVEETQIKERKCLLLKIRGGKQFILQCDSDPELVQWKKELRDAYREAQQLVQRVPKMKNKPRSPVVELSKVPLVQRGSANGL
pIC50: −log10 of the molar value.
Quantity Name: pIC50

**Query** Quick one: pIC50 for CC(=O)Oc1ccc2[nH]c(C(=O)c3cc4ccccc4[nH]3)cc2c1 ?
**Result** < 4.00

###

Target: Platelet-derived growth factor receptor (Homo sapiens, UniProt P09619+P16234)
Assay: Antitumor activity measured by the inhibition of platelet-derived growth factor receptor autophosphorylation in intact Swiss 3T3 cells
pIC50: −log10 of the molar value.
Quantity Name: pIC50

[P] O=C(CCc1ccccc1)Oc1ccc2[nH]c(C(=O)c3cc4ccccc4[nH]3)cc2c1
[Q] Cc1ccc2[nH]c(C(=O)c3cc4ccccc4[nH]3)cc2c1
[R] O=C(c1cc2ccccc2[nH]1)c1cc2cc(OC(=O)c3ccccc3Cl)ccc2[nH]1
[S] CC(=O)Oc1ccccc1C(=O)Oc1ccc2[nH]c(C(=O)c3cc4ccccc4[nH]3)cc2c1
**Query** Sort low-to-high on pIC50, please. Answer by listing the labels in the order asked for.
**Result** Q, R, S, P
(Q: 5.12, R: 5.34, S: 5.66, P: 5.92)

###

Target: Platelet-derived growth factor receptor beta (Homo sapiens)
Sequence (P09619 whole entry): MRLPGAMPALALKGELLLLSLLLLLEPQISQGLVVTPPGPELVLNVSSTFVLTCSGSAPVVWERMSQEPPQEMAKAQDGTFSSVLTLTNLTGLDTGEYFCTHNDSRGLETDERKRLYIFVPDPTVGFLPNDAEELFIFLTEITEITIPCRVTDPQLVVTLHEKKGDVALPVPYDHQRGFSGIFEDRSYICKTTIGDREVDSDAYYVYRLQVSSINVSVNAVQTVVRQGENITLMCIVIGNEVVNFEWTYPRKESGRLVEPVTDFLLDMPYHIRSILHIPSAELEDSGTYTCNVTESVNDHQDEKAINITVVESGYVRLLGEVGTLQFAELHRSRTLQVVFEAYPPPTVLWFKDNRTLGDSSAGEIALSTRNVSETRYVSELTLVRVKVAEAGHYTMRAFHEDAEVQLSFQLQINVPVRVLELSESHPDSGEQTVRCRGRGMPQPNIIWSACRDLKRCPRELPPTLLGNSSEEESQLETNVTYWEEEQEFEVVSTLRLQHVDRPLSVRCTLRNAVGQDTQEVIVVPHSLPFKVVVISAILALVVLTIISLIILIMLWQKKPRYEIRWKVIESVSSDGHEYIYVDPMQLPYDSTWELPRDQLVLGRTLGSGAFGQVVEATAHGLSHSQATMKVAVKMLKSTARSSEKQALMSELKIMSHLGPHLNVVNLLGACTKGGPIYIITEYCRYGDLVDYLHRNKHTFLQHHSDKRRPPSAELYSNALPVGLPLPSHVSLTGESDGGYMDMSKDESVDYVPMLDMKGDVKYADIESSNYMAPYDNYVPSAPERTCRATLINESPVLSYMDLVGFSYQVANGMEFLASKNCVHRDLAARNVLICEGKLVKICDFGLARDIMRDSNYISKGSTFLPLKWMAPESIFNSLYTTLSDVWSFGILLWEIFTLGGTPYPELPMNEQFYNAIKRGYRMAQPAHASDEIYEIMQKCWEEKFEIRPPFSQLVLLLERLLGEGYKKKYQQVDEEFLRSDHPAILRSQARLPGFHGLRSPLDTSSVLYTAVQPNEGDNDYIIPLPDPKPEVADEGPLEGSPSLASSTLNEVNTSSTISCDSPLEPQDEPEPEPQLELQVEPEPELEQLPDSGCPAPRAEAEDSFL
Assay: Inhibition of purified Platelet-derived growth factor receptor beta kinase activity
pIC50: −log10 of the molar value.
Quantity Name: pIC50

Some molecules with known pIC50 results, for comparison:
>>> test_value("CC(=O)Oc1ccc2[nH]c(C(=O)c3cc4ccccc4[nH]3)cc2c1")
6.52
>>> test_value("CN(C)CC(=O)Oc1ccc2[nH]c(C(=O)c3cc4ccccc4[nH]3)cc2c1")
7.00

[P] O=C(c1cc2ccccc2[nH]1)c1cc2cc(O)ccc2[nH]1
[Q] COCC(=O)Oc1ccc2[nH]c(C(=O)c3cc4ccccc4[nH]3)cc2c1
**Query** Higher pIC50 between P and Q ? Write the label of whichever entry you select.
**Result** Q
(Q: 7.70, P: 7.05)

###

Target: Platelet-derived growth factor receptor (Homo sapiens, UniProt P09619+P16234)
Assay: Antitumor activity measured by the inhibition of platelet-derived growth factor receptor autophosphorylation in intact Swiss 3T3 cells
pIC50: −log10 of the molar value.
Quantity Name: pIC50

>>> test_value("CC(=O)OC(C(=O)Oc1ccc2[nH]c(C(=O)c3cc4ccccc4[nH]3)cc2c1)c1ccccc1 (stereo unspecified)")
6.05

[A] COc1ccc2[nH]c(C(=O)c3cc4ccccc4o3)cc2c1
[B] COc1ccc2[nH]c(C(=O)c3cc4ccccc4[nH]3)cc2c1
**Query** Which one would you say has the larger pIC50 value: A , or B ? Indicate your choice by writing its label.
**Result** B

[1] COc1ccc2[nH]c(C(=O)c3cc4ccccc4s3)cc2c1
[2] O=C(c1cc2ccccc2[nH]1)c1cc2cc(OCCCCI)ccc2[nH]1
[3] O=C(c1cc2ccccc2[nH]1)c1cc2cc(OCc3ccccc3)ccc2[nH]1
[4] COc1ccc2cc(C(=O)c3cc4ccccc4[nH]3)[nH]c2c1
**Query** Order by pIC50, ascending. Answer by naming the labels in the order asked.
**Result** 3, 2, 1, 4

[1] COc1cccc(CC(=O)Oc2ccc3[nH]c(C(=O)c4cc5ccccc5[nH]4)cc3c2)c1
[2] CN(C)CCCOc1ccc2[nH]c(C(=O)c3cc4ccccc4[nH]3)cc2c1
**Query** Of 1 versus 2 , which is the one with smaller reported pIC50? Refer to your chosen item by its label in the answer.
**Result** 2
(2: 5.49, 1: 6.00)

[A] O=C(c1cc2ccccc2[nH]1)c1cc2cc(OCCN3CCCCC3)ccc2[nH]1
[B] O=C(c1cc2ccccc2[nH]1)c1cc2cc(O)ccc2[nH]1
**Query** Which numeric pIC50 is bigger, that of A or that of B ? Could you answer with the label of the item you picked?
**Result** B
(B: 6.70, A: 6.10)

###

Reported IC50 values follow for various compounds
Molecular target: Fibroblast growth factor receptor 1 (Homo sapiens, UniProt P11362)
Sequence (P11362 whole entry): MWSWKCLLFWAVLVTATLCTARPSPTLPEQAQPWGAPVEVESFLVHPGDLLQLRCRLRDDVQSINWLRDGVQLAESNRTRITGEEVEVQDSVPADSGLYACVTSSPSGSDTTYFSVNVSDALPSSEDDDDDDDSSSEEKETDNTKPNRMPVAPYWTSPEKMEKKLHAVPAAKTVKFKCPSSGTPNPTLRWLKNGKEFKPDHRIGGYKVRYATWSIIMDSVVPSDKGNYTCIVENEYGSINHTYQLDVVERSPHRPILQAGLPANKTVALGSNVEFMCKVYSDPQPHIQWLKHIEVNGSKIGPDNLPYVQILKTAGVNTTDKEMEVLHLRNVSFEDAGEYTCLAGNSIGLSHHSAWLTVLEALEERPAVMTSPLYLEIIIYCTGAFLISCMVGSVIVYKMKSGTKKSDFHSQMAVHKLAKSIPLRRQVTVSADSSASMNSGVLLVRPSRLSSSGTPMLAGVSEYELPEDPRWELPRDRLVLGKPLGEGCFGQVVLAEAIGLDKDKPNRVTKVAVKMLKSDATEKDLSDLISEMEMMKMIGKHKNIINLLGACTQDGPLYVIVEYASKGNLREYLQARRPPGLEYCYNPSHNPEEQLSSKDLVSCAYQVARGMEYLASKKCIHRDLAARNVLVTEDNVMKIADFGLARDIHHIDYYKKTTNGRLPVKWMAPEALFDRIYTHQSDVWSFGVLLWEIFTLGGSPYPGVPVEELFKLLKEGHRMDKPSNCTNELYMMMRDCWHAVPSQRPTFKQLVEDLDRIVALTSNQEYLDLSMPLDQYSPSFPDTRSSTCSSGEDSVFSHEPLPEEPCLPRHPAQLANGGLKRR
Assay: Inhibition of Fibroblast growth factor receptor 1 autophosphorylation in PAE cells

Reference set, count: 3
>>> test_value("COCC(=O)Oc1ccc2[nH]c(C(=O)c3cc4ccccc4[nH]3)cc2c1")
"> 10 µM"
>>> test_value("CC(=O)Oc1ccc2[nH]c(C(=O)c3cc4ccccc4[nH]3)cc2c1")
"0.2 µM"
>>> test_value("CN(C)CC(=O)Oc1ccc2[nH]c(C(=O)c3cc4ccccc4[nH]3)cc2c1")
"> 10 µM"

**Query** IC50 lookup needed for O=C(c1cc2ccccc2[nH]1)c1cc2cc(O)ccc2[nH]1 , thanks.
**Result** > 10 µM

###

Target: Platelet-derived growth factor receptor (Homo sapiens, UniProt P09619+P16234)
Assay: Antitumor activity measured by the inhibition of platelet-derived growth factor receptor autophosphorylation in intact Swiss 3T3 cells
Quantity Name: IC50 (nM)

>>> test_value("COc1cc(C(=O)Oc2ccc3[nH]c(C(=O)c4cc5ccccc5[nH]4)cc3c2)cc(OC)c1OC")
4100

[P] COc1ccc2[nH]c(C(=O)c3cc4cc(OC)ccc4[nH]3)cc2c1
[Q] O=C(Oc1ccc2[nH]c(C(=O)c3cc4ccccc4[nH]3)cc2c1)c1ccc([N+](=O)[O-])cc1
[R] O=C(c1cc2ccccc2[nH]1)c1cc2cc(OCCN3CCOCC3)ccc2[nH]1
[S] O=C(Oc1ccc2[nH]c(C(=O)c3cc4ccccc4[nH]3)cc2c1)c1ccc2ccccc2n1
**Query** Arrange items by their IC50 values in increasing order. Provide the labels, sequenced as the question asks.
**Result** S, Q, R, P
(S: 400 nM, Q: 900 nM, R: 2500 nM, P: 10000 nM)
